# ASSAYED_TARGET: Induced myeloid leukemia cell differentiation protein Mcl-1 (Homo sapiens)
# ASSAY_PROCEDURE: Mcl-1/Noxa binding inhibitor potency, dose response, biochemical, TR-FRET (AID 1417)
# CONDITION_CONTEXT: Mcl-1/Noxa peptide interaction, cell-free TR-FRET (terbium/rhodamine), 2 h; measured here: absolute IC50
Listed below: log10(IC50) values for each entry.
Recall that a logarithmic scale is used here: each number is log10 of IC50 in µM.

Reference set (5 entries):
MOLECULE	log10(IC50)
Cc1cccc2cc(/C=N/NC(=O)c3ccccc3O)c(Cl)nc12	0.78
CCc1cc(C(=O)N=Nc2c(O)[nH]c3ccc([N+](=O)[O-])cc23)c2ccccc2n1	0.78
CCCCCn1c(N)c(-c2nc3ccccc3o2)c2c([N+](=O)[O-])nn(CC)c(=O)c21	0.45
COC(=O)c1ccc2nc(Nc3nc4ccc(F)cc4s3)sc2c1	0.24
COc1ccc(Nc2cc(C)c3c(O)cccc3n2)cc1	0.85

Exam item: # lookup: Induced myeloid leukemia cell differentiation protein Mcl-1 (Homo sapiens) log10(IC50), key = CN(C)c1ccc(CC(=O)c2nc3ccccc3s2)cc1
Marked response: 0.50

Exam item: # lookup: Induced myeloid leukemia cell differentiation protein Mcl-1 (Homo sapiens) log10(IC50), key = Cc1ccc(N=Nc2c(N)[nH]n3c(=O)cc(-c4ccccc4)nc23)cc1
Marked response: 1.15

Exam item: # lookup: Induced myeloid leukemia cell differentiation protein Mcl-1 (Homo sapiens) log10(IC50), key = O=C1CC(=O)c2c1cccc2[N+](=O)[O-]
Marked response: 0.41

Exam item: # lookup: Induced myeloid leukemia cell differentiation protein Mcl-1 (Homo sapiens) log10(IC50), key = O=C(COC(=O)c1c2c(nc3ccccc13)/C(=C/c1ccco1)CC2)NC1CCCC1
Marked response: 0.37

Exam item: # lookup: Induced myeloid leukemia cell differentiation protein Mcl-1 (Homo sapiens) log10(IC50), key = COc1ccc(N2CCC(CNC(=O)Nc3ccc(OC)cc3OC)C2)cc1 (stereo unspecified)
Marked response: 0.09

Exam item: # lookup: Induced myeloid leukemia cell differentiation protein Mcl-1 (Homo sapiens) log10(IC50), key = CC(/C=N/NC(=O)c1cc(-c2ccc3ccccc3c2)n[nH]1)=C\c1ccco1
Marked response: 0.69

Exam item: # lookup: Induced myeloid leukemia cell differentiation protein Mcl-1 (Homo sapiens) log10(IC50), key = O=C(Nc1cccc(Cl)c1)Nc1nnc(-c2ccncc2)s1
Marked response: 0.61

Exam item: # lookup: Induced myeloid leukemia cell differentiation protein Mcl-1 (Homo sapiens) log10(IC50), key = Cc1cccc(NC(=O)CSc2nnc(-c3ccco3)c(-c3ccco3)n2)c1C
Marked response: 0.81

Exam item: # lookup: Induced myeloid leukemia cell differentiation protein Mcl-1 (Homo sapiens) log10(IC50), key = COc1ccc(Cc2nnc(NC(=O)Cc3cccs3)s2)cc1OC
Marked response: 0.02

Exam item: # lookup: Induced myeloid leukemia cell differentiation protein Mcl-1 (Homo sapiens) log10(IC50), key = COc1ccc(-n2nc3cc(C)c(N)c(Br)c3n2)cc1
Marked response: 0.46

Exam item: # lookup: Induced myeloid leukemia cell differentiation protein Mcl-1 (Homo sapiens) log10(IC50), key = COc1ccccc1/C=c1\sc2nc(-c3ccco3)nn2c1=O
Marked response: 0.91

Exam item: # lookup: Induced myeloid leukemia cell differentiation protein Mcl-1 (Homo sapiens) log10(IC50), key = N#C/C(=C(/O)c1ccc(-c2cccc([N+](=O)[O-])c2)o1)c1nc2ccccc2s1
Marked response: 0.76

Exam item: # lookup: Induced myeloid leukemia cell differentiation protein Mcl-1 (Homo sapiens) log10(IC50), key = O=C(Nc1nc(-c2ccncc2)cs1)c1ccco1
Marked response: 0.56

Exam item: # lookup: Induced myeloid leukemia cell differentiation protein Mcl-1 (Homo sapiens) log10(IC50), key = COc1cc(/C=N/Nc2nc(C)nc3c2cnn3-c2ccccc2)ccc1O
Marked response: 1.12

Exam item: # lookup: Induced myeloid leukemia cell differentiation protein Mcl-1 (Homo sapiens) log10(IC50), key = Cc1cccc(N=C2NC(=O)/C(=C/C=C/c3ccco3)S2)c1C
Marked response: 0.62

Exam item: # lookup: Induced myeloid leukemia cell differentiation protein Mcl-1 (Homo sapiens) log10(IC50), key = O=C1/C(=C/c2ccccn2)SC(=S)N1c1ccc(O)cc1
Marked response: 0.92

Exam item: # lookup: Induced myeloid leukemia cell differentiation protein Mcl-1 (Homo sapiens) log10(IC50), key = CC[C@H](C)NC(=O)c1ccc(Cn2c(=S)[nH]c3c([nH]c4ccc(OC)cc43)c2=O)cc1
Marked response: 0.79

Exam item: # lookup: Induced myeloid leukemia cell differentiation protein Mcl-1 (Homo sapiens) log10(IC50), key = Cc1c2c(=O)n(-c3nc4ccccc4s3)nc-2cc(O)n1Cc1ccccc1
Marked response: 0.75

====

# ASSAYED_TARGET: Induced myeloid leukemia cell differentiation protein Mcl-1 (Homo sapiens)
# ASSAY_PROCEDURE: Mcl-1/Noxa binding inhibitor potency, dose response, biochemical, TR-FRET (AID 1417)
# CONDITION_CONTEXT: Mcl-1/Noxa peptide interaction, cell-free TR-FRET (terbium/rhodamine), 2 h; measured here: absolute IC50
Listed below: pIC50 values for each entry.
To interpret pIC50, take it as minus log10 of a concentration measured in moles per litre.

Reference set (3 entries):
ITEM_SMILES	pIC50
O=C(/C=C/c1cccs1)N1CCN(c2ccc(O)cc2)CC1	5.44
Cc1ccc(N2NC(=O)/C(=C\c3cc4c(cc3[N+](=O)[O-])OCO4)C2=O)cc1C	5.31
COc1ccc(-c2csc(NC(=O)CSc3nc(C)nc4sc(C(=O)O)c(C)c34)n2)cc1	5.08

Exam item: Return the recorded pIC50 value; entry: COc1ccc(N2Cc3cccc(C(=O)N4CCN(C(=O)c5ccco5)CC4)c3C2=O)cc1
Marked response: 5.75

Exam item: Return the recorded pIC50 value; entry: CC(C)c1nc2sc3c(=O)[nH]c(=S)[nH]c3c2c2c1CCC2
Marked response: 5.13

Exam item: Return the recorded pIC50 value; entry: COc1cccc(/C=N/Nc2ncnc3c2[nH]c2ccc(C)cc23)c1OC
Marked response: 5.38

====

# ASSAYED_TARGET: Induced myeloid leukemia cell differentiation protein Mcl-1 (Homo sapiens)
# ASSAY_PROCEDURE: Mcl-1/Noxa binding inhibitor potency, dose response, biochemical, TR-FRET (AID 1417)
# CONDITION_CONTEXT: Mcl-1/Noxa peptide interaction, cell-free TR-FRET (terbium/rhodamine), 2 h; measured here: absolute IC50
Listed below: pIC50 values for each entry.
To interpret pIC50, take it as minus log10 of a concentration measured in moles per litre.

Reference set (2 entries):
O=C(Nc1ccc(S(=O)(=O)Nc2nccs2)cc1)/C(=C/c1ccccc1Cl)NC(=O)c1ccccc1 5.53
Cn1cc(C(=O)N/N=C/c2ccc([N+](=O)[O-])cc2)c2ccccc21 5.52

Exam item: Return the recorded pIC50 value; entry: O=c1cc(/N=C/c2coc3c(ccc4ccccc43)c2=O)[nH]c(=S)[nH]1
Marked response: 5.39

====

Listed below: pIC50 values for each entry.
# ASSAYED_TARGET: Induced myeloid leukemia cell differentiation protein Mcl-1 (Homo sapiens) (UniProt Q07820)
# Sequence (Q07820 whole entry, looked up): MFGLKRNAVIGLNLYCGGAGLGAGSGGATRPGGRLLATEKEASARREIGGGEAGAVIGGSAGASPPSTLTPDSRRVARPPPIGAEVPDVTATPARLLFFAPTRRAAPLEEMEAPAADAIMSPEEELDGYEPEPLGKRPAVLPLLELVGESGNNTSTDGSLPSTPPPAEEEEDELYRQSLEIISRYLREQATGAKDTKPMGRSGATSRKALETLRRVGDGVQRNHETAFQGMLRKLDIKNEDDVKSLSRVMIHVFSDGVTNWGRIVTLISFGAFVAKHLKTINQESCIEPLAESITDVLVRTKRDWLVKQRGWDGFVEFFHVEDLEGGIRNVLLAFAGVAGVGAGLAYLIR
# ASSAY_PROCEDURE: Mcl-1/Noxa binding inhibitor potency, dose response, biochemical, TR-FRET (AID 1417)
# CONDITION_CONTEXT: Mcl-1/Noxa peptide interaction, cell-free TR-FRET (terbium/rhodamine), 2 h; measured here: absolute IC50
To interpret pIC50, take it as minus log10 of a concentration measured in moles per litre.

Reference set (4 entries):
COMPOUND	pIC50
CCOc1cc(/C=C(\C#N)c2[nH]nc(N)c2C#N)ccc1O	5.34
O=C(O)c1ccc(-n2cccc2/C=C2/NC(=O)N(c3ccccc3)C2=O)cc1	5.48
O=C(Nc1cccc(S(=O)(=O)N2CCOCC2)c1)c1c2c(nc3ccccc13)CCC2	5.51
NS(=O)(=O)c1ccc(-c2ccc(/C=C3\SC(=S)N(C4CCS(=O)(=O)C4)C3=O)o2)cc1 (configuration not stated)	5.59

Let us examine a further case.
Exam item: Return the recorded pIC50 value; entry: CN(C)c1ccc(NC(=O)Cn2ncn3c(cc4ccccc43)c2=O)cc1
Marked response: 5.47

====

Listed below: IC50 values for each entry.
# ASSAYED_TARGET: Induced myeloid leukemia cell differentiation protein Mcl-1 (Homo sapiens) (UniProt Q07820)
# ASSAY_PROCEDURE: Mcl-1/Noxa binding inhibitor potency, dose response, biochemical, TR-FRET (AID 1417)
# CONDITION_CONTEXT: Mcl-1/Noxa peptide interaction, cell-free TR-FRET (terbium/rhodamine), 2 h; measured here: absolute IC50
Number in µM, nothing else.

O=C1NC(=O)N(c2ccccc2)C(=O)/C1=C\c1ccc2c3c(cccc13)CC2 8.21
O=C(O)CSc1cc(C(=O)c2ccccc2O)cn2c(=O)c3c4c(sc3nc12)CCCC4 3.38
O=C1SC(SCc2ccccc2Cl)=N/C1=C\c1ccc(C(=O)O)cc1 4.67
O=C1NC(=S)NC(=O)C1=Cc1cccn1-c1ccc(O)cc1 3.36

Exam item: Return the recorded IC50 value; entry: Cc1nnc(NC(=O)COc2ccc3c(C)cc(=O)oc3c2)s1
Marked response: 5.88

Measured values drawn from PubChem BioAssay AID1417 for this set.
